Recorded Euclidean distance values for a group of compounds are listed next.
# Test system: HEPG2
# procedure.text: Euclidean distance of Cell Painting phenotypic profile (signed KS, 77 features) to DMSO centroid (dimensionless distance); 5 or 10 uM (library dependent); higher = stronger phenotypic change vs DMSO (phenoactivity)
# experimental.conditions: 48 h
Reply with just the number.

compound	readout	observed.measurement
CC(C)NC(=O)COc1cccc(-c2nc(Nc3ccc4[nH]ncc4c3)c3ccccc3n2)c1	Euclidean distance	1.76
CC(C(=O)O)c1cccc(Oc2ccccc2)c1 (stereo not drawn) [Fenoprofen Calcium]	Euclidean distance	1.16

Input line: Fill in Euclidean distance for record O=C(Nc1ccc(Cl)cc1)Nc1ccc(Cl)c(Cl)c1 [Triclocarban]
Output line: 3.53

All figures here come from the supplement of paper PMC10127200.
